Target: T1, recombinant human FcRn (Sino Biological Inc. Cat. No. CT009-H08H) (human, UniProt P55899 24-290; P61769 21-119)
T1 construct: Bought protein; also called hFcRn (SINO); immobilized FcRn
T1 sequence (P55899 24-290 limits assumed, chain 1 of 2): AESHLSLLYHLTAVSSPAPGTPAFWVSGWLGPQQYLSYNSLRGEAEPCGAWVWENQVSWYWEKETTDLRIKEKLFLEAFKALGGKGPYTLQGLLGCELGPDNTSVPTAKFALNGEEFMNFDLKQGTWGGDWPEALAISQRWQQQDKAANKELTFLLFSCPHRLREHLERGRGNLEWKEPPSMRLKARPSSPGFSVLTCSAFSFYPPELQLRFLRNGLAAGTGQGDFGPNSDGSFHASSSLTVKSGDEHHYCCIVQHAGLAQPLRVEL
T1 sequence (P61769 21-119 limits assumed, chain 2 of 2): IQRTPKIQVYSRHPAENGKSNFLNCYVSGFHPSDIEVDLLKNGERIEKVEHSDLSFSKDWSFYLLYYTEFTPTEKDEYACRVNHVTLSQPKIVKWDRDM
Assay: scFv competition ELISA vs biotinylated parent murine antibody, captured FcRn, pH 7.4
Consider the following binders; for each one, report its fold decrease in IC50 (relative to humanized parent scFV).
Numbers only, in fold.

INSERT INTO results (binder, observed_result) VALUES
  ('G7 VH1 scFv with humanized parental Vκ1 (scFv) scFv: QVQLVQSGAELKKPGASVKLSCKASGYTFTSYGISWVKQATGQGLEWIGEIYPRSGNTYYNEKFKGRATLTADKSTSTAYMELRSLRSEDSAVYFCARSTTVAPPGHWGTGTTVTVSSGGGGSGGGGSGGGGSDIQMTQSPSYLSASVGDRVTITCKASDHINNWLAWYQQKPGQAPRLLISGATSLETGVPSRFSGSGTGKDYTLTISSLQTEDFATYYCQQYWSTPYTFGGGTKVEIK', 30.8);

Please examine the following record next.
INPUT: Look up fold decrease in IC50 (relative to humanized parent scFV) for this binder: G9 VH1 scFv with humanized parental Vκ1 (scFv) scFv: QVQLVQSGAELKKPGASVKLSCKASGYTFTSYGISWVKQATGQGLEWIGEIYPRSGNTYYNEKFKGRATLTADKSTSTAYMELRSLRSEDSAVYFCARSTTVSPPRVWGTGTTVTVSSGGGGSGGGGSGGGGSDIQMTQSPSYLSASVGDRVTITCKASDHINNWLAWYQQKPGQAPRLLISGATSLETGVPSRFSGSGTGKDYTLTISSLQTEDFATYYCQQYWSTPYTFGGGTKVEIK
OUTPUT: 25.3
